biological target: MAGI2_4, Q86UL8; experiment: holdup assay; parameters: key: below the threshold = too weak to quantify, mostly under pKd 3.1 to 4; details: plain residues with an end cap or a label only (N-terminal biotin on a linker: ado-ado)
Sequence (Q86UL8 772-865): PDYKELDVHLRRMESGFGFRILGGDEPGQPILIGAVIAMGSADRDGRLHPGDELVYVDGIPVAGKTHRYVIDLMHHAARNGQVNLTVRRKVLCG
Decide by pKd: equal to or exceeding 4 means t, less means f.

Example results:
> print(dat)
                                     binder  cat
1                RSSGGDDFWF [KCNV1, Q6PIU1]    t
2              PSHPRLQTHV [KIRREL2, Q6UWL6]    f
3              MQHQRTHTRV [ZSCAN30, Q86W11]    f
4  KRPEMTSSSV [MUC3A, MUC3B, Q02505;Q9H195]    f
5                DTKNYKQTSV [CRIPT, Q9P021]    f

Problem: Does the binder NTLNRKTTPV [CACNG8, Q8WXS5] have recorded pKd that is 4 or more?
Solution: f

Problem: Does the binder VKRNSKETVV [MARCHF3, Q86UD3] have recorded pKd that is 4 or more?
Solution: t
